Numbers sourced from patent US20260151494A1.

assaySystem: T1, human CD71 extracellular domain (human, UniProt P02786 89-760)
T1 construct: also called hCD71; CD71-ECD
T1 sequence (P02786 89-760): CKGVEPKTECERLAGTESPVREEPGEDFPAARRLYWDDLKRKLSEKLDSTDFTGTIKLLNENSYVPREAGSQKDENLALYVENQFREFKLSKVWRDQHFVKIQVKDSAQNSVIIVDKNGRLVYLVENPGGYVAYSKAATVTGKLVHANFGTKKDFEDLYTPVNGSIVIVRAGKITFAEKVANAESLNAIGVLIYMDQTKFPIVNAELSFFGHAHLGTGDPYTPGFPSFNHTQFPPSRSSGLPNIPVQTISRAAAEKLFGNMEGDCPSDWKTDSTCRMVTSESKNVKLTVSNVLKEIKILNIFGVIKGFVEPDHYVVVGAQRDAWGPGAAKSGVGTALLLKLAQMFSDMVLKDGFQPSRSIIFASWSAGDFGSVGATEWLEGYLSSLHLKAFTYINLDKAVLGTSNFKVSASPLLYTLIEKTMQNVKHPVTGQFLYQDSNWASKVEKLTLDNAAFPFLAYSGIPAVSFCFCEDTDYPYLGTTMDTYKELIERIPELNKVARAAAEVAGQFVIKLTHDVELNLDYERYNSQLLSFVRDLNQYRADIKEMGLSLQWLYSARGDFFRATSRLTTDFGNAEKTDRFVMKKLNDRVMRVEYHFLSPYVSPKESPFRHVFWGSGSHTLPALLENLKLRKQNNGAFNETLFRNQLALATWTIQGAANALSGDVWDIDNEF
assayProcedure: primary ELISA; also: test concentration or dose not given here
Recorded RLU values for a group of binders are listed next.
readoutType: RLU

| binder | experimentalResult |
| --- | --- |
| CD71-binding FN3 domain SEQ ID NO 390 (designed binder) MLPAPKNLVVSRVTEDSARLSWTAPDAAFDSFEIGYFERAWFGEAIVLTVPGSERSYDLTGLKPGTEYAVFIGGVKGGSYSYPLSAIFTT | 1.93e+06 RLU |
| CD71-binding FN3 domain SEQ ID NO 415 (designed binder) MLPAPKNLVVSRVTEDSARLSWTAPDAAFDSFFIGYLEPQPPGEAIHLQVPGSERSYDLTGLKPGTEYNVTIQGVKGGFPSMPLSAIFTT | 3.51e+06 RLU |
| CD71-binding FN3 domain SEQ ID NO 404 (designed binder) MLPAPKNLVVSRVTEDSARLSWTAPDAAFDSFFIGYLEPQPPGEAIHLLVPGSERSYDLTGLKPGTEYNVTIQGVKGGFPSEPLLAIVTT | 4.72e+06 RLU |
| CD71-binding FN3 domain SEQ ID NO 408 (designed binder) MLPAPKNLVVSRVTEDSARLSWTAPDAAFDSFFIGYLEPQPPGEAIGLWVPGSERSYDLTGLKPGTEYNVTIQGVKGGFPSMPLSAIFTT | 2.26e+06 RLU |
